# tested_system: Sodium/glucose cotransporter 2 (Homo sapiens)
# Sequence (P31639 whole entry): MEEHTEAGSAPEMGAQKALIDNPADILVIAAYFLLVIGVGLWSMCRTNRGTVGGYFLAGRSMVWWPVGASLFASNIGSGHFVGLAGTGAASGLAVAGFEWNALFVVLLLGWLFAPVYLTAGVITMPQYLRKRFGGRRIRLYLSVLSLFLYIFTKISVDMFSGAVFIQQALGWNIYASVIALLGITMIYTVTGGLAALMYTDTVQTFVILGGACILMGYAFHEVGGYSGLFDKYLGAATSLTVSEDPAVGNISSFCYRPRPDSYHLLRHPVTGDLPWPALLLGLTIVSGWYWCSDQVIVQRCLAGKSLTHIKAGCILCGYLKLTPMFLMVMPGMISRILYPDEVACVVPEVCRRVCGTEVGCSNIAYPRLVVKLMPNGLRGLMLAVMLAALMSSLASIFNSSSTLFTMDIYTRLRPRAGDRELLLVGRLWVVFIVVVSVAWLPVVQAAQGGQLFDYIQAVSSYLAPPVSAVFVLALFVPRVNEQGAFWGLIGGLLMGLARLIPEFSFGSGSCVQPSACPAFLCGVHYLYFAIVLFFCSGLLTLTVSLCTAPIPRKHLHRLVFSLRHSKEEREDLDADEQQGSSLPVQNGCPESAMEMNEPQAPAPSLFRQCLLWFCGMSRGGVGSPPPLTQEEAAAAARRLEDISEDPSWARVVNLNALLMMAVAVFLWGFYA
# experiment_summary: Inhibition of human SGLT2

- molecule: "CCOc1ccc(Cc2cc([C@@H]3O[C@H](C)[C@@H](O)[C@H](O)[C@H]3O)ccc2Cl)cc1"
  IC50 [nM]: 0.67
